Here, each record is paired with measured protein stability index data.
System: Saccharomyces cerevisiae
procedure-summary: protein stability index of tFT-peptide fusion (C-terminal peptide) (PSI (0-1 scale)); higher = more stable (slower turnover)
condition-summary: genetic background: das1 deletion; temperature: 30 C
A bare number is all that is needed in reply.

biosequence	protein stability index
LYEHGIKKFDDL [JIP5 C-terminal 12 aa]	0.674
FPLLMSEIEDFR [YNL067W-A C-terminal 12 aa]	0.718
SSTTEETILVRK [RKM1 C-terminal 12 aa]	0.689

Q: Given the sequence LIIRNLNAEKER [YFR056C C-terminal 12 aa] , write its reported protein stability index.
A: 0.697

Q: Query protein stability index for SQNELRFEERLL [INO1 C-terminal 12 aa]
A: 0.683

Q: Item EAAKKSEKKAKK [RPL34A C-terminal 12 aa] : provide protein stability index
A: 0.695

Q: Tell me protein stability index reported for LTEMSAKISFED [AAD10 C-terminal 12 aa]
A: 0.717

Q: Please look at this sequence and report its protein stability index: MLNQQQQQQQQS [NRD1 C-terminal 12 aa]
A: 0.702

Q: Specify measured protein stability index for ILRPLELKYFGR [FCY2 C-terminal 12 aa] .
A: 0.707

Cited source: the supplement of paper PMC10724198
